target: D(2) dopamine receptor (Homo sapiens, UniProt P14416); test: Agonist activity at human dopamine D2 receptor expressed in CHO cells assessed as inhibition of forskolin-induced cAMP production after 20 mins relative to dopamine
Sequence (P14416 whole entry): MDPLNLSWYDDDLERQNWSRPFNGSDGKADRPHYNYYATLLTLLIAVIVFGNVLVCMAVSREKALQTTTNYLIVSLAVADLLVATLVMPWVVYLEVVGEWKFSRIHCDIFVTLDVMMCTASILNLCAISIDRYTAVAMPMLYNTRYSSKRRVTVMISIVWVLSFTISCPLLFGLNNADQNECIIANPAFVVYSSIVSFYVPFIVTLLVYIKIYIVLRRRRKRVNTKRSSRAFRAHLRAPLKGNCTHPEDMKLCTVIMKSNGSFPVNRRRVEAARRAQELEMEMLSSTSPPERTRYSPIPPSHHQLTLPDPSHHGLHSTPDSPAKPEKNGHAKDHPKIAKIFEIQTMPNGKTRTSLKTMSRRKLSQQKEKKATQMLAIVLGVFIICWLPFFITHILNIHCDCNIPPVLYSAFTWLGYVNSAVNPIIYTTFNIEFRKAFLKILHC
MEASURE_NAME: Efficacy (%)
Numbers only, in %.

Example compounds with recorded Efficacy:
Ask: For the compound "CCCN(CCc1cccs1)[C@H]1CCc2c(O)cccc2C1" , what Efficacy is on record?
Reply: 110

Ask: For the compound "CCCN1CCO[C@@H]2Cc3c(O)cccc3C[C@H]21.Cl" , what Efficacy is on record?
Reply: 110

Dear colleague, could you send me Efficacy for each of the items below? Thanks.
1. CCCN1C[C@@H](Cn2cc(Cl)cn2)O[C@@H]2Cc3c(O)cccc3C[C@H]21
2. CCCN1CCC[C@@H]2Cc3c(O)cccc3C[C@H]21
3. CCCN1C[C@H](Cn2cc(Cl)cn2)O[C@@H]2Cc3c(O)cccc3C[C@H]21.Cl
4. CCN1CCO[C@@H]2Cc3c(O)cccc3C[C@H]21.Cl

Reply:
[99, 96, 98, 120]

Dear colleague, could you send me Efficacy for each of the items below? Thanks.
1. CCCN1C[C@H](Cn2cccn2)O[C@@H]2Cc3c(O)cccc3C[C@H]21
2. CCCN1C[C@H](CSC)O[C@@H]2Cc3c(O)cccc3C[C@H]21.Cl
3. CCCN1C[C@@H](Cn2cccn2)O[C@@H]2Cc3c(O)cccc3C[C@H]21
4. C=CCN1CCO[C@@H]2Cc3c(O)cccc3C[C@H]21.Cl

Reply:
1. 99
2. 96
3. 95
4. 87

====

target: D(2) dopamine receptor (Homo sapiens, UniProt P14416); test: Agonist activity at human dopamine D2 receptor expressed in CHO cells assessed as inhibition of forskolin-induced cAMP production after 20 mins
Binary call on EC50 with cut-off 1 nM: strictly below means Criterion met, and equality or higher means Criterion not met.

Ask: Consider "CCCN1C[C@H](Cn2ccc(-c3ccccc3)n2)O[C@@H]2Cc3c(O)cccc3C[C@H]21" . Does its EC50 lie strictly below 1 nM?
Reply: Criterion not met

Ask: Consider "C=CCN1CCO[C@@H]2Cc3c(O)cccc3C[C@H]21.Cl" . Does its EC50 lie strictly below 1 nM?
Reply: Criterion not met

Ask: Consider "CCCN1C[C@@H](Cn2cncn2)O[C@@H]2Cc3c(O)cccc3C[C@H]21" . Does its EC50 lie strictly below 1 nM?
Reply: Criterion met

In the following, a different compound is considered.
Ask: Consider "CCCN1C[C@H](Cn2cc(Cl)cn2)O[C@@H]2Cc3c(O)cccc3C[C@H]21.Cl" . Does its EC50 lie strictly below 1 nM?
Reply: Criterion not met

====

experiment: Volume of distribution at steady state in rat at 0.5 mg/kg, iv and 1 mg/kg, po; format: ADME, organism-based; conditions: in vivo, read-out: Vdss
For each entry below, report its Vd value.
Answers are plain numbers, in L/kg.

Example compounds with recorded Vd:
Ask: For the compound "CCCN(CCc1cccs1)[C@H]1CCc2c(O)cccc2C1" , what Vd is on record?
Reply: 9.7

Ask: For the compound "CCN1CCO[C@@H]2Cc3c(O)cccc3C[C@H]21.Cl" , what Vd is on record?
Reply: 1

Please turn your attention to the following entry.
Ask: For the compound "CN1CCO[C@@H]2Cc3c(O)cccc3C[C@H]21.Cl" , what Vd is on record?
Reply: 1.9
